B1: Pistol ribozyme (parent)
chain: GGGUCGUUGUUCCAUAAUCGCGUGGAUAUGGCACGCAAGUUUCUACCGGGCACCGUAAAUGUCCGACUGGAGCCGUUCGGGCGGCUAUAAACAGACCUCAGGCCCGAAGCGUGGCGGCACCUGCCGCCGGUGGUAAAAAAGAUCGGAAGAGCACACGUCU

- Variants of: B1
- assay text: aptazyme ON/OFF ratio, guanine; higher = stronger switching; co-transcriptional cleavage with and without guanine
quantity kind: aptazyme ON/OFF ratio
The answer should be a number; do not append a unit.

Record U7A G9C U10G U11C C12G C13U , field aptazyme ON/OFF ratio: 1.17

Record U7A U8A G9A U11C C12A , field aptazyme ON/OFF ratio: 1.16

Record U7A G9A U10A U11C C12G C13G , field aptazyme ON/OFF ratio: 1.42

Record U7A U8G G9A U10C C12A , field aptazyme ON/OFF ratio: 1.25

Record U7G U8G U10C C12A C13U , field aptazyme ON/OFF ratio: 1.28

Record U8C G9U U10C U11A C12A C13A , field aptazyme ON/OFF ratio: 1.09

Record U7G U10A C12U C13G , field aptazyme ON/OFF ratio: 1.22

Record U7G U8C G9A U10A C13A , field aptazyme ON/OFF ratio: 1.19

Record U7C U8G G9C U10C C12G C13A , field aptazyme ON/OFF ratio: 1.43

Record U8A G9A U10A C12A C13A , field aptazyme ON/OFF ratio: 1.17

Record U7C U10A C12A C13G , field aptazyme ON/OFF ratio: 1.08

Record G9U U10G C12G C13U , field aptazyme ON/OFF ratio: 1.23

Record U8A U11C C12U , field aptazyme ON/OFF ratio: 1.54

Record U7G G9A U10G U11A C13U , field aptazyme ON/OFF ratio: 1.07

Record U8G G9A U11G C12U C13G , field aptazyme ON/OFF ratio: 1.16

Record U7A U8G U10A U11A C13A , field aptazyme ON/OFF ratio: 1.28

Record U7A U8G U10C U11G C13U , field aptazyme ON/OFF ratio: 1.53

Record U7A U8G G9A U10G C13G , field aptazyme ON/OFF ratio: 1.09

Record U7A U8A U11A C13G , field aptazyme ON/OFF ratio: 1.09

Record U7C U8A G9A U10A U11G C13U , field aptazyme ON/OFF ratio: 1.25

Record U8A G9C C12A , field aptazyme ON/OFF ratio: 1.37

Record U7C U8C G9A U10C U11G C12U C13A , field aptazyme ON/OFF ratio: 1.45
